// data source = paper PMC11001683

RUN DESCRIPTION: ACD855 Phase I SAD study, cohort 1, plasma pharmacokinetics
Type: in vivo
SETUP CONDITIONS: human, 1 mg oral, cohort 1, healthy volunteers, read-out: elimination half-life in plasma in humans, average (converted)
REPORTED ENDPOINT: half-life (days)
Expressed in days, but write only the number.

// field: half-life; key: `Cc1cc(-n2c(=O)[nH]c(=O)n(C)c2=O)ccc1Oc1ccc(S(=O)(=O)C(F)(F)F)cc1` ; value = 68
